Reference source: patent US20050266575A1

target: ORL1 (Homo sapiens, UniProt P41146); assay: Calcium flux (FLIPR) in carbachol-sensitized HEK-293 cells expressing ORL-1 receptor; type: cell-based; design: expressed in transfected cells; host or cells: HEK-293 cells expressing ORL-1 receptor; conditions: ratio of variant EC50 to nociceptin EC50
Sequence (P41146 whole entry): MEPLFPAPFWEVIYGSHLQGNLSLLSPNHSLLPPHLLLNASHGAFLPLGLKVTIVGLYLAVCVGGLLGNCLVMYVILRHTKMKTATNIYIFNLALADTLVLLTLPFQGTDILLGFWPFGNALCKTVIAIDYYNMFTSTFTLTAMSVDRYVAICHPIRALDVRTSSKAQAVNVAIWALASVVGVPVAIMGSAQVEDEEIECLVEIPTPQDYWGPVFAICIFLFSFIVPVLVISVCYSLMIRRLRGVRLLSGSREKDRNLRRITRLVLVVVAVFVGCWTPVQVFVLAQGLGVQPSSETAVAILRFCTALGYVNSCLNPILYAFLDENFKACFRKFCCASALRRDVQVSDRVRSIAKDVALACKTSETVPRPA
No end group written: not given here.
Parameter class (string): assigned from measured EC50(x)/EC50(WT). Ranges: LOW: < 5; MID: ≥ 5 and < 10; HIGH: ≥ 10

>  <sequence entry>
FGGFTGARKSARKAANQ [Peptide L14A]

>  <target of assay>
ORL1 (Homo sapiens, UniProt P41146)

>  <discrete label>
LOW

$$$$
>  <sequence entry>
FGGFLGARKSARKLANQ [Peptide T5L]

>  <target of assay>
ORL1 (Homo sapiens, UniProt P41146)

>  <discrete label>
MID

$$$$

Now take the following sequence into account.
Q: // return the class label for FGGFTGAKKSAKKLANQ [R8K/R12K]
Result: HIGH
